Tested on: U251 CNS
Assay: NCI-60 one-dose screen, 48 h (100 = growth as untreated, 0 = no growth, -100 = all killed)
Details: 10 µM unless noted
The panel holds about 83,000 compounds, 20% with a hit somewhere; the sample as a whole holds those more often. Calls of active or inactive are those of the source. Rule for the calls: active = growth percent below 10; inactive = the rest.
value.type: growth

Record CC[C@H](CC[C@@H](C)[C@H]1CC[C@H]2[C@@H]3/C(=C/c4cccnc4)C(=O)C4=CC(=O)CC[C@]4(C)[C@H]3CC[C@]12C)C(C)C . Reported growth: 0.689% (active)

Summary for this molecule, Cn1cc(-c2csc(-c3cn(CCNC(=O)OC(C)(C)C)c4ccc(F)cc34)n2)c2cccnc21 : growth is 82.2% (inactive)

Measured growth, COc1cc2c3c(c4c5ccccc5[nH]c4c2c(OC)c1OC)C(=O)N(O)C3=O : 28% (inactive)

Notebook: CC(C)(C)c1[nH]nc2c1C(c1cc3ccccc3[nH]c1=O)Nc1cc(C(=O)OCc3ccccc3)ccc1N2 (centres undefined) , growth read as 51.6% (inactive)

GET /value?item= O=C1CCCC=CC[C@H]2C=C(Cl)C(=O)C2=CC[C@H](CCCCC(F)(F)F)OC(=O)CCCC=CC[C@H]2C=C(Cl)C(=O)C2=CC[C@H](CCCCC(F)(F)F)OC(=O)CCCC=CC[C@H]2C=C(Cl)C(=O)C2=CC[C@H](CCCCC(F)(F)F)O1 &field=growth returns 36.4% [6.25 µM] (inactive)

Sample COc1cc2c(cc1OC)C(=O)/C(=C/c1cc(-c3ccc4c(c3)OCO4)n[nH]1)C2 ; growth observed: -75.5% (active)

Given item Fc1ccc(NCc2nnc(-c3ccc(Cl)cc3)o2)cc1 , the value recorded as its growth is 77.8% (inactive)

CCN1CCN(C(=O)[C@]23CCC(C)(C)C[C@@H]2C2=CC[C@@H]4[C@@]5(C)C/C(=C/c6ccncc6)C(=O)C(C)(C)[C@@H]5CC[C@@]4(C)[C@]2(C)CC3)CC1 yielded growth of -77.2% (active)

Lookup result for COc1cccc(-c2nn(-c3ccccc3)cc2-c2ccnc(NCCCN)c2)c1 ; measured growth: 38.9% (inactive)

Query Cc1cc(Cl)c2c(N(C)C)cccc2n1 yields growth of 105% (inactive)

In plain terms, Cn1cc(-c2nc(-c3cn(C)c4ncccc34)cs2)c2ccccc21 has a documented growth of 31.8% (inactive)

====

System: HCT-116 colon
Assay: NCI-60 one-dose screen, 48 h (100 = growth as untreated, 0 = no growth, -100 = all killed)
Details: 10 µM unless noted
About 83,000 compounds went through this panel and 20% of them were active in at least one assay; those are over-represented in the sample as a whole.
value.type: growth (%)
Please respond with the number in % and leave the unit unwritten.

Below are worked cases with known answers.
{"columns": ["smiles.text", "unit.symbol", "growth"],
 "data": [
  ["CCN1CCN(C(=O)[C@]23CCC(C)(C)C[C@@H]2C2=CC[C@@H]4[C@@]5(C)C/C(=C/c6cccnc6)C(=O)C(C)(C)[C@@H]5CC[C@@]4(C)[C@]2(C)CC3)CC1", "%", 13.3],
  ["CCOc1ccc(NC(=O)c2ccccc2-c2ccccc2C(=O)O)cc1", "%", 103],
  ["Fc1ccc(NCc2nnc(-c3ccc(Cl)cc3)o2)cc1", "%", 53.7]
]}

Here's the next entry for you.
// growth lookup, compound = Cc1[c-]onc1C.Cc1[c-]onc1C.[Ag].[Ag].[NH-]S(=O)(=O)c1ccc(N=Nc2cc(N=Nc3ccc(S([NH-])(=O)=O)cc3)c3c(NC(=O)C(Cl)Cl)cccc3c2OC(=O)C(Cl)Cl)cc1 , result: 71.9

====

Test system: SK-MEL-2 melanoma
Assay: NCI-60 one-dose screen, 48 h (100 = growth as untreated, 0 = no growth, -100 = all killed)
Details: 10 µM unless noted
Description: Growth inhibition of the SK-MEL-2 human tumor cell line is measured as a screen for anti-cancer activity. Cells are grown in 96 well plates and exposed to the test compound for 48 hours. Compounds are tested at a single concentration, which is 10^-5 M for most compounds. The reported endpoint is percent growth (GI% or GIPRCNT), where numbers from 0 - 100% represent growth inhibition, and numbers from -100% - 0 represent cell death. For example, a value of 40 represents 60% growth inhibition. […]
This is part of a sample that, as a whole, favours compounds with a hit. Of some 83,000 tested, about 20% had one in any assay.
value.type: growth (%)
# value in %; strip the unit string

{"columns": ["compound", "value.type", "val"],
 "data": [
  ["O=C(CCCCCn1c2ccccc2c2c3c(c4c5ccccc5[nH]c4c21)C(=O)N(O)C3=O)N1CCOCC1", "growth", 72.5],
  ["CC(=O)O[C@H]1CC[C@@]2(C)C(=CC[C@@H]3[C@@H]2CC[C@]2(C)C(=O)N(O)C(=O)C[C@@H]32)C1", "growth", 80.4],
  ["Cc1cc(Cl)nc(N(CCNc2ccnc3cc(Cl)ccc23)Cc2ccco2)n1", "growth", 55.8],
  ["CCc1ccc(-c2ccc(Nc3ccccc3)nn2)cc1S(N)(=O)=O", "growth", 78.9],
  ["OCC(CO)(CCl)CCl", "growth", 87.8],
  ["CC(C)=CCC/C(C)=C/CC/C(C)=C/CSC[C@H](NC(=O)CCCCCN1CCN(C)CC1)C(=O)NC1CCCCCC1", "growth", 88.2]
]}

So, CCc1cccc(CC)c1NC(=O)c1sc2nc3c(cc2c1N)CCCC3 ? Its growth was 56.3

Noted for COC(=O)[C@]12CC[C@@H](C)[C@H](C)[C@@H]1C1=CC[C@@H]3[C@@]4(C)C[C@@H](O)OC[C@](C)(C=O)C4C(=O)C[C@@]3(C)[C@]1(C)CC2 (stereo not given in full) : its growth reads -22.4

Sample COc1cc(-c2cc(-c3nc4ccccc4[nH]3)[nH]n2)cc(OC)c1OC ; growth observed: 47.4

growth recorded for this compound, Cc1ccc2oc(=O)cc(-c3sc(N4CCCCC4)nc3-c3ccccc3)c2c1 , is 93.7

Lab note: measured growth of COc1cc2nc(Cl)nc(Nc3cccc(C(=O)/C=C/c4ccccc4)c3)c2cc1OC was 86.8

Sample CCC(=O)c1c(C)[nH]c(C)c1C ; growth observed: 16.6

What the record says about O=P(O)(c1ccccc1)c1ccccc1I : growth is 96

The reported value for Cn1cc(-c2csc(-c3cn(CCCN4CCCCC4)c4ccc(Br)cc34)n2)c2cccnc21 in terms of growth is 37

Entry Oc1ccc(Nc2ccccc2)cc1 — recorded growth = 125

====

growth for assorted molecules
System: RXF 393 renal
Experiment: NCI-60 one-dose screen, 48 h (100 = growth as untreated, 0 = no growth, -100 = all killed)
Conditions: 10 µM unless noted
This is part of a sample that, as a whole, favours compounds with a hit. Of some 83,000 tested, about 20% had one in any assay.
The reply should be a number in %, with the unit left off.

Short answer for Cc1nc([P+](c2ccccc2)(c2ccccc2)c2ccccc2)c(Sc2sc(-c3ccccc3)nc2[P+](c2ccccc2)(c2ccccc2)c2ccccc2)o1 : growth was 26.7

Noted for Cc1ccc(Cc2cnc(NC(=O)/C=C/c3cccc(C)c3)s2)cc1 : its growth reads -0.16

Record summary for Nc1c(C(=O)Nc2cccc(Cl)c2)sc2ncc(Cl)cc12 : reported growth = 83.5

====

System: U251 CNS
Experiment: NCI-60 one-dose screen, 48 h (100 = growth as untreated, 0 = no growth, -100 = all killed)
Details: 10 µM unless noted
The panel holds about 83,000 compounds, 20% with a hit somewhere; the sample as a whole holds those more often.
value.type: growth (%)
Note: unit % is implicit; provide only the numeric part.

Per the reported U251 CNS data, O=C(NC(Cc1cn(Cc2ccccc2)cn1)C(=O)O)OCC1c2ccccc2-c2ccccc21 (centres undefined) has growth of 101

Assay U251 CNS, sample O=C1NC(c2ccc(Cl)c(Cl)c2)=C/C1=C\c1ccccc1 , growth read: 46.1

// returns growth for COc1ccc(/C=C/C(=O)NCCO)cc1 with U251 CNS; value = 94.8

====

Tested on: LOX IMVI melanoma
Assay: NCI-60 one-dose screen, 48 h
Details: 10 µM unless noted
Compounds without any hit were thinned out: in the full panel of roughly 83,000, 20% have a hit. Calls of active or inactive are those of the source. Rule for the calls: active = growth percent below 10; inactive = the rest.
Answer with one of the outcomes YES (active), NO (inactive)

// known answers, use as guide
{"columns": ["compound", "tested.on", "qualitative.label"],
 "data": [
  ["Cn1c2c(Cl)c(Cl)ccc2c2c(C#N)c[nH]c(=O)c21", "LOX IMVI melanoma", "NO"],
  ["NNC(=O)c1nc2ccccc2[nH]1", "LOX IMVI melanoma", "NO"],
  ["Cc1ccnc2c(OCc3ccccc3)cccc12", "LOX IMVI melanoma", "NO"]
]}

Next:
Please state the recorded outcome for this compound: COc1cccc(-c2nn(-c3ccccc3)cc2-c2ccnc(NCCCNS(=O)(=O)c3ccc(Cl)cc3)c2)c1
NO

Provenance of the data: PubChem BioAssay (NCI)
